Provenance of the data: patent US20220177587A1

# measured.target: human CTLA-4 (human) (UniProt P16410)
# Sequence (P16410 36-223): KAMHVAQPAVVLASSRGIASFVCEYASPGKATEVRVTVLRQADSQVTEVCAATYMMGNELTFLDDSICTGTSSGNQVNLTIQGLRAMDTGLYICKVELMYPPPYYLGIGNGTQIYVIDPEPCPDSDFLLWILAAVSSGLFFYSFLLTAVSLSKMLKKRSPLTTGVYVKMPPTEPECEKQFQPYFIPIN
# experimental.protocol: flow cytometry, Expi293F cells transfected with CTLA-4
Overview of reported MFI across a group of binders:
Form entry: value (MFI) — number only.

[
  {
    "binder": "CD80 K37E/F59S/L70Q/A91G/T120S/T130A ECD-Fc (SEQ ID NO 1397) (Fc fusion) VIHVTKEVKEVATLSCGHNVSVEELAQTRIYWQKEKEMVLTMMSGDMNIWPEYKNRTISDITNNLSIVIQALRPSDEGTYECVVLKYEKDGFKREHLAEVTLSVKADFPTPSISDFEVPSSNIRRIICSASGGFPEPHLSWLENGEELNAINTTVSQDPETELYAVSSKLDFNMTTNHSFMCLIEYGHLRVNQTFNWNTTKQEHFPDN",
    "units.label": "MFI",
    "MFI": 74
  },
  {
    "binder": "CD80 E24G/R29D/Y31L/Q33H/K36G/M38I/T41A/M43R/M47T/F59L/E81V/L85R/K89N/A91T/F92P/K93V/R94L/H96R/N149S/C182S ECD-Fc (Fc fusion) VIHVTKEVKEVATLSCGHNVSVEGLAQTDILWHKEGKIVLAMRSGDTNIWPEYKNRTILDITNNLSIVILALRPSDEGTYVCVVRKYENDTPVLERLAEVTLSVKADFPTPSISDFEIPTSNIRRIICSTSGGFPEPHLSWLENGEELSAINTTVSQDPETELYAVSSKLDFNMTTNHSFMSLIKYGHLRVNQTFNWNTTKQEHFPDN",
    "units.label": "MFI",
    "MFI": 1020
  },
  {
    "binder": "CD80 R29V/M43Q/E81R/L85I/K89R/D90L/A91E/F92N/K93Q/R94G ECD-Fc (Fc fusion) VIHVTKEVKEVATLSCGHNVSVEELAQTVIYWQKEKKMVLTMQSGDMNIWPEYKNRTIFDITNNLSIVILALRPSDEGTYRCVVIKYERLENQGEHLAEVTLSVKADFPTPSISDFEIPTSNIRRIICSTSGGFPEPHLSWLENGEELNAINTTVSQDPETELYAVSSKLDFNMTTNHSFMCLIKYGHLRVNQTFNWNTTKQEHFPDN",
    "units.label": "MFI",
    "MFI": 996
  }
]

# evaluate next
Lab note: CD80 S44P/L70Q/A91G/T130A ECD-Fc (Fc fusion) VIHVTKEVKEVATLSCGHNVSVEELAQTRIYWQKEKKMVLTMMPGDMNIWPEYKNRTIFDITNNLSIVIQALRPSDEGTYECVVLKYEKDGFKREHLAEVTLSVKADFPTPSISDFEIPTSNIRRIICSASGGFPEPHLSWLENGEELNAINTTVSQDPETELYAVSSKLDFNMTTNHSFMCLIKYGHLRVNQTFNWNTTKQEHFPDN gave MFI of 134
